System: Mycobacterium tuberculosis
ASSAY_NAME: Cornell - Phenotypic assay to identify agents that inhibit growth of Mycobacterium tuberculosis
Type: functional
Design: scale not given: direction of the effect not stated beside the values
STATED_CONDITIONS: 10 mM as filed; unlikely as a test dose
The whole screen tested about 53,000 compounds, of which about 900 (1.7%) showed an effect of 50% or more. The full list was thinned out, with strong results kept by preference.
ATTRIBUTE_MEASURED: Percent Effect

In the examples that follow, each entry is paired with its recorded Percent Effect.
molecule="Fc1cnc(N2CCC3(CC2)CC(OCc2cccnc2)CO3)nc1.O=C(O)C(F)(F)F.O=C(O)C(F)(F)F (stereo not given)" measured_value=8.704%
molecule="Fc1ccc(N2CCC3(CC2)CC(OCc2cccnc2)CO3)cc1.O=C(O)C(F)(F)F (stereo not given)" measured_value=62.76%
molecule=Cc1cnc(C(=O)N2CCN3C[C@H](OCc4cccnc4)C[C@H]3C2)cn1 measured_value=-31.84%
molecule="COc1ccc(OC)c(C2CCN(Cc3nc(C)n4ccccc34)C2)c1 (stereo not given)" measured_value=51.45%
molecule=c1cncc(CNCCc2cccs2)c1 measured_value=34.29%

Attention now shifts to the item below.
Report Percent Effect on Mycobacterium tuberculosis for this entry: N#Cc1ccc(N2CCC3(CC2)CC(OCc2cccnc2)CO3)cc1.O=C(O)C(F)(F)F (stereo not given)
25.8%
